src = ChEMBL document CHEMBL3885861

- Species: Rattus norvegicus
- Protocol notes: Open TG-GATES - Regimen: Single
- Assay type: toxicity, organism-based, Sprague-Dawley
- Design: regimen Single, gender Male, age 6 weeks
- Condition info: in vivo, po, 0 mg/kg, 6 h, tissue Blood, route gavage, dose level Control
As shown below, each of these compounds has a reported MCH value.
Assay readout: MCH (pg)

>>> print(df.to_string())
                                   compound  assay_readout  unit_symbol  test_result
0  S=C=Nc1cccc2ccccc12 [1-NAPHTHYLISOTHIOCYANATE]            MCH           pg           22
1  Cc1cccc(Nc2cc(Cl)nc(SCC(=O)O)n2)c1C [PIRINIXIC ACID]            MCH           pg           22
2  Cn1cnc([N+](=O)[O-])c1Sc1ncnc2nc[nH]c12 [AZATHIOPRINE]            MCH           pg         21.6
3  Cc1cnc(NC(=O)C2=C(O)c3ccccc3S(=O)(=O)N2C)s1 [MELOXICAM]            MCH           pg         21.8
4  COc1ccc(Cl)cc1C(=O)NCCc1ccc(S(=O)(=O)NC(=O)NC2CCCCC2)cc1 [GLYBURIDE]            MCH           pg         20.1
5  COc1ccc(O)c(C(C)(C)C)c1.COc1ccc(O)cc1C(C)(C)C [BUTYLATED HYDROXYANISOLE]            MCH           pg         21.3
6  O=C1CN(/N=C/c2ccc(-c3ccc([N+](=O)[O-])cc3)o2)C(O)=N1 [DANTROLENE]            MCH           pg         22.6
7                     C=CCO [ALLYL ALCOHOL]            MCH           pg         21.4
